Source listed as paper PMC12136037.

- experimental.target: ~100 representative kinases (Homo sapiens, UniProt Q9Y6E0)
- Construct: Recombinant protein kinase domains with a concentration of 2 μM
- Sequence (Q9Y6E0 whole entry, the tested form may be a part): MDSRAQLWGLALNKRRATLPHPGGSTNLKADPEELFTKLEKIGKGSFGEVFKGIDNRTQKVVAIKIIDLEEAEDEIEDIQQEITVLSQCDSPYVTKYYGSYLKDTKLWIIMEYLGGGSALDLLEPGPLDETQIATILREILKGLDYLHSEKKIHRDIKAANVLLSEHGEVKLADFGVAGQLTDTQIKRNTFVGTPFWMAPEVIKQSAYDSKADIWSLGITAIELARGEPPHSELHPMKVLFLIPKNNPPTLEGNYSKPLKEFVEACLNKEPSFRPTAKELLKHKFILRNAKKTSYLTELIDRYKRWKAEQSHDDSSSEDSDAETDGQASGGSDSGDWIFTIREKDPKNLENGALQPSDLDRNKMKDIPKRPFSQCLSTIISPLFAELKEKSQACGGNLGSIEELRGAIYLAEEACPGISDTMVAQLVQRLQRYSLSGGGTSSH
- procedure.text: DSF 100 kinase selectivity screen;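 note: compound tested at 20 µM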
- Format: binding
- run.parameters: protein MST3; average of three replicates
experimental.endpoint: dTm (K)

Example cases with answers are listed next.
> print(dat)
                                   compound                       experimental.target  experimental.endpoint  measured.value
1  C[C@@H]1CN(c2cc(-c3n[nH]c4ccc(OC5(C)CC5)cc34)ncn2)C[C@H](C)O1  ~100 representative kinases (Homo sapiens, UniProt Q9Y6E0)                    dTm            0.43
2  CCNc1nc(Nc2cc(F)c(C(=O)N3CCOCC3)cc2OC)ncc1C(F)(F)F  ~100 representative kinases (Homo sapiens, UniProt Q9Y6E0)                    dTm            0.91
3  O=C(Nc1cccc(-c2c[nH]c3ncnc(N4CCOCC4)c23)c1)C1(C(=O)Nc2ccc(F)c(F)c2)CC1  ~100 representative kinases (Homo sapiens, UniProt Q9Y6E0)                    dTm            6.82
4  Cc1ccc(C(=O)Nc2ccc(CN3CCN(C)CC3)c(C(F)(F)F)c2)cc1C#Cc1cnc2[nH]ncc2c1 [GZD-824, reference compound]  ~100 representative kinases (Homo sapiens, UniProt Q9Y6E0)                    dTm           10.01

1 = O=C(Nc1cccc(-c2c[nH]c3ncnc(N4CCOCC4)c23)c1)C1(C(=O)Nc2ccc(F)c(Br)c2)CC1
2 = CC(C)(C)c1cc(NC(=O)Nc2cccc(-c3c[nH]c4ncnc(N5CCOCC5)c34)c2)n(-c2ccc3ncccc3c2)n1
Data request: In terms of reported dTm, does 1 or 2 have the smaller number? Select an item and report its label.
Data returned: 1
